viability at 28.5 h, 10 µM values by entry
# assay_summary: in vitro
# settings: human, hela cells, % viability
Provide the measurement as a number trailed by its unit.

Illustrative cases are given below, each with its answer.
{"compound": "COc1ccc(CCN2C(=O)CC(N3CCN(Cc4ccc5c(c4)OCO5)CC3)C2=O)cc1OC (stereo not shown)", "viability at 28.5 h, 10 µM": "88%"}
{"compound": "Cc1ccc2nc(Cn3cc(-c4cnn(Cc5ccccc5)c4)cn3)cn2c1", "viability at 28.5 h, 10 µM": "90.4%"}
{"compound": "O=C(O)c1cc(NC(=O)c2cccc(N3C(=O)c4ccccc4C3=O)c2)cc(C(=O)O)c1", "viability at 28.5 h, 10 µM": "96.8%"}

# get_value(readout='viability at 28.5 h, 10 µM', item= CC(CNC(=O)c1cccn(CC(=O)Nc2ccc(F)cc2)c1=O)N1CCCCCC1 (stereo not shown) )
97.5%
